Where do these numbers come from? They come from patent US20210130436A1.

# SYSTEM_NAME: T1, human PD-L1 on CHO cells (human, UniProt Q9NZQ7 19-290)
# T1 construct: whole, on cells; CHO cells stably expressing PD-L1; also called huPD-L1
# MEASUREMENT_PROTOCOL: flow cytometry; PD-L1 MFI over CD28 MFI
Item-by-item account of Ratio of PDL1:CD28
READOUT_LABEL: Ratio of PDL1:CD28 (ratio)

BINDER | RESULT_UNITS | MEASURED_VALUE
variant CD80 IgV-Fc H18Y/E35D/M47L/A71G/A91S (Fc fusion, not shown: a dimerising Fc or GST) VIHVTKEVKEVATLSCGYNVSVEELAQTRIYWQKDKKMVLTMMSGDLNIWPEYKNRTIFDITNNLSIVILGLRPSDEGTYECVVLKYEKDSFKREHLAEVTLSVKAD | ratio | 14
variant CD80 IgV-Fc E35D/T41S/N48I (Fc fusion, not shown: a dimerising Fc or GST, also called E35D/T41S/N48T) VIHVTKEVKEVATLSCGHNVSVEELAQTRIYWQKDKKMVLSMMSGDMTIWPEYKNRTIFDITNNLSIVILALRPSDEGTYECVVLKYEKDAFKREHLAEVTLSVKAD | ratio | 30
variant CD80 IgV-Fc E35D/M47I/N48K/I61F (Fc fusion, not shown: a dimerising Fc or GST) VIHVTKEVKEVATLSCGHNVSVEELAQTRIYWQKDKKMVLTMMSGDIKIWPEYKNRTIFDFTNNLSIVILALRPSDEGTYECVVLKYEKDAFKREHLAEVTLSVKAD | ratio | 7
variant CD80 IgV-Fc E35D/M47V (Fc fusion, not shown: a dimerising Fc or GST) VIHVTKEVKEVATLSCGHNVSVEELAQTRIYWQKDKKMVLTMMSGDVNIWPEYKNRTIFDITNNLSIVILALRPSDEGTYECVVLKYEKDAFKREHLAEVTLSVKAD | ratio | 6
